Each recorded value in this set is attributed to ChEMBL document CHEMBL5634193.

Test: Metabolic stability in rat liver microsomes assessed as intrinsic clearance
Type: ADME, Microsome
Conditions: read-out: CLH
REPORTED METRIC: microsomal CLint (µL/min/mg)
Write the value in µL/min/mg as a bare number.

Lookup: Return reported microsomal CLint; argument: Nc1nonc1-c1nc2cccc(F)c2n1Cc1cnccn1
Found: 68

Lookup: Entry Nc1nonc1-c1nc2ccccc2n1Cc1ccncc1 : reported microsomal CLint = ?
Found: 56

Lookup: // query microsomal CLint value for entry Nc1nonc1-c1nc2ccc(F)cc2n1Cc1ccncc1
Found: 10

Lookup: Which measured microsomal CLint value corresponds to Nc1nonc1-c1nc2cccc(F)c2n1Cc1cccnn1 ?
Found: 9.9

Lookup: State the recorded microsomal CLint for this entry: Nc1nonc1-c1nc2cccc(F)c2n1Cc1cncnc1
Found: 24

Lookup: Record request: microsomal CLint value, item Nc1nonc1-c1nc2c(F)ccc(F)c2n1Cc1cccnn1
Found: 12.6

###

Assay: Half life in Sprague-Dawley rat at 0.5 mg/kg, iv
Assay type: ADME, organism-based
Conditions: in vivo
REPORTED METRIC: half-life (min)
// units = min; emit number, no label

Lookup: Looking for the measured half-life of Nc1nonc1-c1nc2cccc(F)c2n1Cc1cccnn1 , can you help?
Found: 60

###

Test: Half life in Cynomolgus monkey at 1 mg/kg, iv
Type: ADME, organism-based, Macaca fascicularis
Conditions: in vivo
REPORTED METRIC: half-life (h)
Report the figure in h without appending any unit label.

Lookup: Give its half-life value. Item: Nc1nonc1-c1nc2cccc(F)c2n1Cc1cccnn1
Found: 1.1

###

Experiment: Kinetic aqueous solubility of compound at pH 7.4
Format: physicochemical
Settings: buffer, read-out: Kinetic_solubility
solubility kinetic vs 10 µM: at or above is fulfilled, below is not fulfilled.

Lookup: Does solubility kinetic meet or surpass 10 µM for Nc1nonc1-c1nc2cccc(F)c2n1Cc1ccc(C(F)(F)F)nn1 ?
Found: not fulfilled

Lookup: Does solubility kinetic meet or surpass 10 µM for Nc1nonc1-c1nc2cccc(F)c2n1Cc1ccncc1 ?
Found: not fulfilled

Lookup: Please tell me: is the compound Nc1nonc1-c1nc2cccc(F)c2n1Cc1ccnnc1 at or over 10 µM in terms of solubility kinetic?
Found: fulfilled

Lookup: For this compound, is measured solubility kinetic 10 µM or higher? Nc1nonc1-c1nc2c(F)cccc2n1Cc1ccncc1
Found: not fulfilled

Lookup: Answer whether solubility kinetic of Nc1nonc1-c1nc2cc(F)ccc2n1Cc1ccncc1 is greater than or equal to 10 µM.
Found: not fulfilled

Lookup: Is solubility kinetic for Nc1nonc1-c1nc2cccc(F)c2n1Cc1cccnn1 at or above 10 µM?
Found: fulfilled

Lookup: Would you say N#Cc1ccc(Cn2c(-c3nonc3N)nc3cccc(F)c32)nn1 shows solubility kinetic at minimum 10 µM?
Found: not fulfilled

Lookup: Is solubility kinetic for Nc1nonc1-c1nc2cccc(F)c2n1Cc1cncnc1 at or above 10 µM?
Found: not fulfilled

Lookup: Could you please find out whether Nc1nonc1-c1nc2c(F)ccc(F)c2n1Cc1cccnn1 has solubility kinetic that meets 10 µM or exceeds it?
Found: fulfilled

Lookup: State whether the measured solubility kinetic reaches 10 µM, counting equality as reaching it, for Nc1nonc1-c1nc2ccc(F)cc2n1Cc1ccncc1
Found: not fulfilled

Lookup: Check the entry Nc1nonc1-c1nc2ccc(F)c(F)c2n1Cc1cccnn1 : does solubility kinetic equal or exceed 10 µM?
Found: not fulfilled

###

Target: Potassium channel subfamily K member 13 (Mus musculus, UniProt Q8R1P5)
Sequence (Q8R1P5 whole entry): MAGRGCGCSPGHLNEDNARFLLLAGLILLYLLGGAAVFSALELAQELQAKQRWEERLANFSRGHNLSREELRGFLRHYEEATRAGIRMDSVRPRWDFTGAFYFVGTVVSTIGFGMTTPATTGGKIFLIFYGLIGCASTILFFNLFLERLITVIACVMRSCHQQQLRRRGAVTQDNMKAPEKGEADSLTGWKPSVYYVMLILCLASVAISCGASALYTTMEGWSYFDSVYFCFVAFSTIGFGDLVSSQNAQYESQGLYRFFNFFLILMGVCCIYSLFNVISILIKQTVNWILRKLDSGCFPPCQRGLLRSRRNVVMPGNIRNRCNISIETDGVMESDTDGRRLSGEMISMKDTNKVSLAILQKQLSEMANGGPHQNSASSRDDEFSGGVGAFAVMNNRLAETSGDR
Experiment: Inhibition of mouse KCNK13 transfected in HEK293 cells
Assay type: cell-based
REPORTED METRIC: pIC50
Scale for pIC50: -log10 of concentration given in mol/L; no unit attached.

Lookup: Name the reported pIC50 value associated with the compound Nc1nonc1-c1nc2cccc(F)c2n1Cc1cnccn1
Found: 7.21

Lookup: # pIC50 lookup, item Nc1nonc1-c1nc2c(F)ccc(F)c2n1Cc1cccnn1
Found: 7.38

Lookup: # input compound: Nc1nonc1-c1nc2cccc(F)c2n1Cc1ccc(C(F)(F)F)nn1 ; wanted: its pIC50
Found: 7.13

Lookup: pIC50 lookup needed for Nc1nonc1-c1nc2cccc(F)c2n1Cc1cncnc1 , thanks.
Found: 7.59

Lookup: I'd like to know its pIC50. The compound in question is N#Cc1ccc(Cn2c(-c3nonc3N)nc3cccc(F)c32)nn1
Found: 7.46

Lookup: Dear colleague, I am looking for the recorded pIC50 of the following compound: Nc1nonc1-c1nc2cccc(F)c2n1Cc1cccnn1
Found: 7.55
